Below is a list of entries, each paired with its recorded MIC value.
- Test system: Candida albicans
- assayText: Antifungal activity against Candida albicans ATCC 44859 after 24 hrs by broth microdilution assay
- Type: functional
- protocolConditions: Candida albicans, ATCC 44859, 24 h
outcomeMeasure: MIC (µM)

1. Cc1cccc(CNC(=S)c2ccccc2O)c1; 125
2. Oc1ccccc1C(=S)NCc1ccc(F)cc1; 62.5

----------
Below is a list of entries, each paired with its recorded MIC value.
- Tested on: Nakaseomyces glabratus
- assayText: Antifungal activity against Candida glabrata 20/I after 48 hrs by broth microdilution assay
- Assay type: functional
- protocolConditions: Nakaseomyces glabratus, 20/I, 48 h
outcomeMeasure: MIC (µM)

1) Oc1ccc(Br)cc1C(=S)NCc1ccc(Cl)c(Cl)c1; 62.5
2) COc1ccc(C(=S)NCc2ccccc2)c(O)c1; 500
3) Cc1ccc(CNC(=S)c2ccc(C)cc2O)cc1; 500
4) Oc1ccc(Br)cc1C(=S)NCc1cccc(Br)c1; 31.2
5) Oc1ccccc1C(=S)NCc1cccc(Cl)c1; 250
6) Cc1ccc(C(=S)NCc2ccccc2)c(O)c1; 250
7) Oc1ccc(Cl)cc1C(=S)NCc1ccc(F)cc1; 125
8) Cc1ccc(CNC(=S)c2ccccc2O)cc1; 125
9) Oc1cc(Cl)ccc1C(=S)NCc1ccc(Br)cc1; 31.2
10) Oc1ccc(Cl)cc1C(=S)NCc1ccc(Cl)c(Cl)c1; 31.2
11) COc1ccc(C(=S)NCc2cccc(Cl)c2)c(O)c1; 500
12) Oc1ccccc1C(=S)NCc1ccc(F)cc1; 250
13) Oc1ccccc1C(=S)NCc1ccc(Cl)c(Cl)c1; 31.2
14) Oc1ccc(Cl)cc1C(=S)NCc1ccccc1; 62.5
15) Cc1cccc(CNC(=S)c2ccccc2O)c1; 250
16) Oc1ccc(Br)cc1C(=S)NCc1ccc(Br)cc1; 125

----------
- Test system: Candida albicans
- assayText: Antifungal activity against Candida albicans ATCC 44859 after 24 hrs by broth microdilution assay
- Format: functional
- protocolConditions: Candida albicans, ATCC 44859, 24 h
Below is a list of entries, each paired with its recorded MIC value.
outcomeMeasure: MIC (µM)

1) COc1ccc(C(=S)NCc2cccc(Cl)c2)c(O)c1; 125
2) Oc1ccc(Cl)cc1C(=S)NCc1ccc(Cl)c(Cl)c1; 31.2
3) OC(Cn1cncn1)(Cn1cncn1)c1ccc(F)cc1F; 1
4) Oc1ccc(Cl)cc1C(=S)NCc1ccccc1; 62.5
5) Cc1ccc(CNC(=S)c2ccccc2O)cc1; 62.5
6) Oc1ccc(Br)cc1C(=S)NCc1ccc(Br)cc1; 15.6
7) COc1ccc(C(=S)NCc2ccccc2)c(O)c1; 62.5
8) Oc1cc(Cl)ccc1C(=S)NCc1ccc(Br)cc1; 15.6
9) Oc1ccc(Br)cc1C(=S)NCc1cccc(Br)c1; 15.6
10) Cc1cccc(C(=S)NCc2ccc(Cl)cc2)c1O; 62.5
11) Cc1ccc(C(=S)NCc2ccccc2)c(O)c1; 62.5
12) Oc1ccccc1C(=S)NCc1ccc(Cl)c(Cl)c1; 15.6
13) Oc1ccc(Cl)cc1C(=S)NCc1ccc(F)cc1; 31.2

----------
- Tested on: Candida albicans
- assayText: Antifungal activity against Candida albicans ATCC 44859 after 24 hrs by broth microdilution assay
- Assay type: functional
- protocolConditions: Candida albicans, ATCC 44859, 24 h
Below is a list of entries, each paired with its recorded MIC value.
outcomeMeasure: MIC (µM)

1) Cc1ccc(CNC(=S)c2cc([N+](=O)[O-])ccc2O)cc1; 500
2) Oc1ccc(Br)cc1C(=S)NCc1ccc(Cl)c(Cl)c1; 15.6
3) Oc1ccccc1C(=S)NCc1cccc(Cl)c1; 125
4) Cc1ccc(CNC(=S)c2ccc(C)cc2O)cc1; 125
